Assay: NCI Yeast Anticancer Drug Screen. Data for the mec2-1 strain (AID 157)
Settings: S. cerevisiae mec2-1 strain, at 50.0 µM
Compounds without any hit were thinned out: in the full panel of roughly 79,000, 15% have a hit. Calls of active or inactive are those of the source. No stated cut-off is given here; in the data, active means growth inhibition above about 70%; inactive means the rest.
Possible outcomes: T for active, F for inactive

- COc1cc2c(cc1OC)C(C(=O)O)C(c1ccccc1)N(C)C2=O (stereo unspecified): F
- O=C1ON=C(c2ccccc2)/C1=C\C=C\c1ccccc1: F
- O=c1[nH]c2cccnc2c(=O)n1O: F
- CCOC(=O)C1=C(Nc2ccc(Cl)cc2Cl)OC/C1=N\NS(=O)(=O)c1ccc(C)cc1: F
- CCOC(=O)CNCc1cccc(C)c1: F
- CC1CCOC(c2ccccc2Cl)O1 (stereo unspecified): F
- CCCCN1CSC(=S)N(CCCC)C1: F
- CCC(=O)OCCCCCCOC(=O)CC: F
- CN(N=O)C(=O)NCCc1ccccc1: F
- CC(C)OC(=O)c1ccc(NCC2=CC(=O)C=CC2=O)cc1: T
- COC(=O)/C=C/c1cccc([N+](=O)[O-])c1: F

* * *

Assay: NCI Yeast Anticancer Drug Screen. Data for the rad50 strain (AID 155);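 further: 0% = growth of vehicle-only cultures of the same strain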
Conditions: S. cerevisiae rad50 strain growth inhibition; at 50.0 µM; stronger effect = higher value
This is part of a sample that, as a whole, favours compounds with a hit. Of some 79,000 tested, about 15% had one in any assay.
Each entry below lists one item and its recorded growth inhibition value.
Quantity kind: growth inhibition (%)

- CCN(CCO)CC(O)Cn1cnc2c(N)ncnc21 (stereo unspecified) (tested in a mixture with another compound): -10.6
- C[N+](C)(C)CCOC(=O)/C=C/c1cnc[nH]1: 9.7
- O=C1C2CCSCN2C(=O)N1c1ccccc1 (stereo unspecified): -41.9
- NNC(=O)Sc1ccccc1: -14.8
- CCOc1c(N=Nc2ccc(Cl)cc2Cl)c(C)nn1C(N)=S: -16.2
- CCn1ncc2c1nc(-c1ccccc1)c[n+]2[O-]: 17.1

* * *

Assay: NCI Yeast Anticancer Drug Screen. Data for the mec2-1 strain (AID 157)
Details: S. cerevisiae mec2-1 strain, at 50.0 µM, stronger effect = higher value
This is part of a sample that, as a whole, favours compounds with a hit. Of some 79,000 tested, about 15% had one in any assay.
Quantity kind: growth inhibition (%)

- O=C(Nc1ccccc1)OC1C(OC(=O)c2ccccc2)OC(COC(=O)c2ccccc2)C1OC(=O)c1ccccc1 (centres undefined): 0.75
- O=CNCCNC=O: -2.25
- CN(C)CCC(C(=O)NCc1ccccc1)C(=O)NCc1ccccc1: -9.95
- N#C/C(=C/O)c1ccccc1: 4.4
- Cc1cc(C)c(C)c(C(=O)OC(C)C)c1C: -9.7
- O=C(O)c1ccc([N+](=O)[O-])cc1Cl: -10
- CNC(=S)SC(=S)NC: 8.3
- COc1ccccc1P(=O)(CCP(=O)(c1ccccc1)c1ccccc1OC)c1ccccc1 (centres undefined): 15.5
- COc1cc(C(=O)O)c(O)c(OC)c1OC: 0.9
- CC(C)NC(N)=O: 16
- CC(O)(c1ccccc1)C1CC1 (centres undefined): -29.2
- CC(=O)OC1CCCC2CCCC21 (centres undefined): 5.2
- O=C(O)c1c[nH]c2c([N+](=O)[O-])cccc2c1=O: 16.5
- CC1(C)N=C(N)NC(Nc2ccccc2)=N1: -6.5
